- Test system: BT-549
- Assay details: NCI tumour cell line growth inhibition, 48 h
The source made the active and inactive calls. Cut-off read from the data, not from the text of the source: active = GI50 up to about 1.1 µM and inactive = higher.
Valid outcomes are listed here; reply with one: yes (1) (active), no (0) (inactive)

[in] Tell me the assay call for COc1cc2c(cc1OCCCCCN1C(=O)c3cccc4cccc(c34)C1=O)N=C[C@@H]1CCCN1C2=O please.
[out] yes (1)

[in] Tell me the assay call for COc1cc2c3c(c1O)-c1c(ccc(OC)c1OC)CC3N(C)CC2 (stereo unspecified) please.
[out] no (0)

[in] Tell me the assay call for CC1=NN(C(=O)c2ccccc2O)C(=O)/C1=C/c1cccc(O)c1 please.
[out] yes (1)

[in] Tell me the assay call for COc1cc2c(cc1O)C1Cc3ccc(OC)c(O)c3C[N+]1(C)CC2 (stereo unspecified) please.
[out] no (0)

[in] Tell me the assay call for CC(C)=CCC[C@@H](C)[C@H]1CC[C@@]2(C)[C@@H]3CC[C@H]4C(C)(C)[C@@H](O)CC[C@@]45C[C@@]35CC[C@]12C [CYCLOARTENOL] please.
[out] no (0)

[in] Tell me the assay call for COC(Cc1ccccc1)NC(C)=O (stereo unspecified) please.
[out] no (0)

[in] Tell me the assay call for CN(C)c1ccc(-c2ccc(N(C)C)c3n[se]nc23)c2n[se]nc12 please.
[out] no (0)

[in] Tell me the assay call for C/C(Nc1ccc(Cl)cc1Cl)=C1/CCOC1=O please.
[out] no (0)

[in] Tell me the assay call for COc1ccc(C2SC(=N)Nc3c2c(C)nn3C(=O)Cc2ccccc2)cc1 (stereo unspecified) please.
[out] no (0)

[in] Tell me the assay call for CCOC(=O)c1nc2cc(C(F)(F)F)ccc2nc1Nc1ccc(OC)cc1 please.
[out] no (0)

[in] Tell me the assay call for Cc1cccc(NS(=O)(=O)c2ccc3c(c2)OCCOCCOCCOCCO3)c1 please.
[out] no (0)

---

- Tested on: U-251
- Assay details: NCI tumour cell line growth inhibition, 48 h
The source made the active and inactive calls. Rule as the data show it: active = GI50 up to about 1.1 µM and inactive = higher.
Record form. Attribute: GI50. Fill in for each entry.

[in] Endpoint output: GI50 of C=CCNC(=S)NNC(=O)c1c(C)nc2sccn12 . Value?
[out] > 100 µM (inactive)

[in] Endpoint output: GI50 of COc1c(O)ccc(/C=N/NC(=S)NCOCCOC(C)=O)c1OC . Value?
[out] > 100 µM (inactive)

[in] Endpoint output: GI50 of CC(O)c1ccc[n+](Cc2ccccc2)c1 (stereo not given) . Value?
[out] > 400 µM (inactive)

[in] Endpoint output: GI50 of CC(C)=CCC[C@@H](C)[C@H]1CC[C@@]2(C)[C@@H]3CC[C@H]4C(C)(C)[C@@H](O)CC[C@@]45C[C@@]35CC[C@]12C . Value?
[out] 15.5 µM (inactive)

[in] Endpoint output: GI50 of CCCCCCCCCCCCCCCCNc1nc(=O)n(C2OC(C)C(O)C2O)cc1F (stereo not given) . Value?
[out] 23.7 µM (inactive)

[in] Endpoint output: GI50 of N#C/C(=C1/Sc2c(nc[nH]c2=O)N1c1ccccc1)c1nc2ccccc2[nH]1 . Value?
[out] > 100 µM (inactive)

[in] Endpoint output: GI50 of CC(C)=CC1(C)/C(=N\O)C(C)(CC(C)C)C(=O)N1O (stereo not given) . Value?
[out] > 100 µM (inactive)

[in] Endpoint output: GI50 of CN1CC2=C(OC(N)=C(C#N)C2c2cccs2)/C(=C/c2cccs2)C1 (stereo not given) . Value?
[out] 8.59 µM (inactive)

[in] Endpoint output: GI50 of O=C1c2cccc3cc4ccccc4c(c23)C(=O)N1CCCNCCNCCCN1C(=O)c2cccc3cc4ccccc4c(c23)C1=O . Value?
[out] 0.0264 µM (active)

[in] Endpoint output: GI50 of CC1CN=C(N(C(=O)Nc2ccccc2)C2CCCCC2)S1 (stereo not given) . Value?
[out] 16.9 µM (inactive)

[in] Endpoint output: GI50 of COC(=O)c1ccccc1C1=C([N+](=O)[O-])C(c2cccc(Br)c2)C(C#N)=C(N)O1 (stereo not given) . Value?
[out] > 100 µM (inactive)

[in] Endpoint output: GI50 of COc1nc2c(c(O)c(C)c(=O)n2OC2OC(COC(C)=O)C(OC(C)=O)C(OC(C)=O)C2OC(C)=O)c(=O)n1C (stereo not given) . Value?
[out] > 100 µM (inactive)

[in] Endpoint output: GI50 of CC1=Nc2ccccc2S(=O)(=O)N1 . Value?
[out] > 100 µM (inactive)

[in] Endpoint output: GI50 of O=C1C(=CNc2ccccc2Cl)C(=O)N(c2ccccc2)C(=O)N1c1ccccc1 . Value?
[out] > 100 µM (inactive)

[in] Endpoint output: GI50 of C[C@@](Br)(C(=O)O)[C@H](Br)C(=O)O . Value?
[out] > 100 µM (inactive)

[in] Endpoint output: GI50 of COc1ccc(COCC[C@H](C)OC2OC(CO[Si](C)(C)C(C)(C)C)C(OC(=O)CCCN=[N+]=[N-])C(OC(=O)CCCN=[N+]=[N-])C2OC(=O)CCCN=[N+]=[N-])cc1 (stereo not given in full) . Value?
[out] 29.6 µM (inactive)

[in] Endpoint output: GI50 of Cc1nc2[nH]ccn2c(=O)c1CCCl . Value?
[out] 20.9 µM (inactive)

[in] Endpoint output: GI50 of COc1ccc(N2C(=O)CC(c3c[nH]c4ncccc34)C2=O)cc1 (stereo not given) . Value?
[out] > 100 µM (inactive)

[in] Endpoint output: GI50 of CC(=O)O[C@H]1CCC2[C@@H]3CCC4c5nonc5CC[C@]4(C)C3CC[C@@]21C (stereo not given in full) . Value?
[out] > 10 µM (inactive)

[in] Endpoint output: GI50 of CC1(Cl)CCC2(CC(Br)=CC3OC32C)CC1Br (stereo not given) . Value?
[out] 19 µM (inactive)

---

- Tested on: HOP-62
- Assay details: NCI tumour cell line growth inhibition, 48 h
Active and inactive are the calls of the source. No stated cut-off is given here; in the data, active = GI50 up to about 1.1 µM and inactive = higher. *1 amine or outer side, *2 acyl side, *3 side chain or, on linkers, in order; H or OH if unused. Where a SMILES comes first, the peptide text is derived from it. Bridges are numbered along the chain shown (N, C = ends). Roman numbers before positions name the chains, in order. [ ]: non-standard residue; d: D form. Actinocin(9to1) = Cc1c2oc3c(C)ccc(C(=O)[*:1])c3nc-2c(C(=O)[*:2])c(N)c1=O; NMeV = CN[CH](C(=O)O)C(C)C; Sar = CNCC(=O)O
Valid outcomes are listed here; reply with one: active, inactive

[in] Tell me the assay call for CCOC(=O)c1[nH]c(Br)c(-c2ccc(OC)c(OC)c2)c1Br please.
[out] active

[in] Tell me the assay call for O=C(O)C(O)c1ccc(F)cc1 (centres undefined) please.
[out] inactive

[in] Tell me the assay call for Cc1ccc(S(=O)(=O)N2c3ccccc3[C@H]3CCc4c([nH]c5ccccc45)[C@H]32)cc1 please.
[out] inactive

[in] Tell me the assay call for COc1ccc(Cc2c(N)[nH]c(=O)[nH]c2=O)cc1 please.
[out] inactive

[in] Tell me the assay call for CC(=O)NCCC1CN(C(=O)/C=C/I)c2ccccc21 (centres undefined) please.
[out] inactive

[in] Tell me the assay call for COC(=O)CCCc1ccc2c(c1)CC1(C2)Cc2cc3c(cc2C1)CCCC3 please.
[out] inactive

[in] Tell me the assay call for O=C1Nc2c(ccc(Cl)c2I)C1=O please.
[out] inactive

[in] Tell me the assay call for C[C@]12CC(C#N)C(=O)C(O)=C1CC[C@@H]1C2CC[C@@]2(C)C1CC[C@@H]2O (some centres undefined) please.
[out] inactive

[in] Tell me the assay call for O=C(c1nc2ccc(Cl)cc2nc1O)C(O)c1ccccc1 (centres undefined) please.
[out] inactive

[in] Tell me the assay call for O=C1CSC(c2c[nH]c3ccccc23)N1c1ccc(Cl)cc1Cl (centres undefined) please.
[out] inactive

[in] Tell me the assay call for c1ccc(CN2CCCCC(Sc3ccccc3)CC2)cc1 (centres undefined) please.
[out] inactive

[in] Tell me the assay call for FC(F)(F)c1ccc(Cc2nc3cc4ccccc4cc3[nH]2)cc1 please.
[out] inactive

[in] Tell me the assay call for COc1cc(OCc2nc3ccccc3n3cccc23)cc(OC)c1OC please.
[out] inactive

[in] Tell me the assay call for COc1ccc2c(c1OC)C(Br)CCC(Br)(Br)C2=O (centres undefined) please.
[out] inactive

[in] Tell me the assay call for COc1cc2c(cc1OCc1ccccc1)CNCC2 please.
[out] inactive

[in] Tell me the assay call for COc1ccc2nc3c([N+](=O)[O-])ccc4c3c(c2c1)N=CN4CCN(C)C please.
[out] inactive

[in] Tell me the assay call for Cc1ccc(Cl)c2c(=O)cc(-c3ccccc3)[nH]c12 please.
[out] inactive

[in] Tell me the assay call for Cc1nc(O)nc(N/N=C/c2c3ccccc3c(Cl)c3ccccc23)c1C(=O)Nc1ccc(Cl)cc1 please.
[out] inactive

[in] Tell me the assay call for COC(=O)c1ccc(CN2CCc3c([nH]c4ccccc34)C2CO)o1 (centres undefined) please.
[out] inactive

[in] Tell me the assay call for Nc1ncnc2c1ncn2[C@H]1CC[C@@H](NO)C1 please.
[out] inactive

[in] Tell me the assay call for CC(=O)CCN1CC2CN=NC2(C#N)C1 (centres undefined) please.
[out] inactive

[in] Tell me the assay call for CC(C)(CC(=O)Nc1ccccc1)C(=O)O please.
[out] inactive

[in] Tell me the assay call for COC(=O)c1ccccc1C1=C([N+](=O)[O-])C(c2cccc(Br)c2)C(C#N)=C(N)O1 (centres undefined) please.
[out] inactive

[in] Tell me the assay call for Cc1c2oc3c(C)ccc(C(=O)NC4C(=O)NC(C(C)C)C(=O)N5CCCC5C(=O)N(C)CC(=O)N(C)C(C(C)C)C(=O)OC4C)c3nc-2c(C(=O)NC2C(=O)NC(C(C)C)C(=O)N3CCCC3C(=O)N(C)CC(=O)N(C)C(C(C)C)C(=O)OC2C)c(N)c1=O (centres undefined) (I: TVP[Sar][NMeV] / II: TVP[Sar][NMeV]; ester I:1-I:C, II:1-II:C; linker I:N-II:N via Actinocin(9to1); configuration not given here) please.
[out] active

[in] Tell me the assay call for Cn1c(=O)nc2n(CCO)ccnc-2c1=O please.
[out] inactive

[in] Tell me the assay call for C=CC/N=C1\NC(=O)C(CC(=O)Nc2ccc(C)cc2)S1 (centres undefined) please.
[out] inactive

[in] Tell me the assay call for CCC(C)C1NC(=O)C2CCCN2C(=O)CNC(=O)C(C)NC(=O)C(Cc2ccccc2)NC(=O)C(C(C)C)NC1=O (centres undefined) (cyclo(GPIVFA); configuration not given here) please.
[out] inactive

[in] Tell me the assay call for C=CCC(O)c1cc(OC)ccc1OC (centres undefined) please.
[out] inactive

[in] Tell me the assay call for COc1ccc(C(=CCC(C)C2CCC3[C@@H]4C(OC(C)=O)CC5CC(OC(C)=O)CC[C@]5(C)C4CC(OC(C)=O)[C@]23C)c2ccc(OC)cc2)cc1 (some centres undefined) please.
[out] inactive

[in] Tell me the assay call for Fc1cccc(F)c1C1SCc2nc3cc(Cl)c(Cl)cc3n21 (centres undefined) please.
[out] inactive

[in] Tell me the assay call for CN(C)CCCNc1c2c(=O)n(C)c(=O)nc-2n(C)c2ccccc12 please.
[out] inactive

[in] Tell me the assay call for O=C(N/C(=C\c1cc(Cl)ccc1Cl)c1nc2cc(Cl)ccc2[nH]1)c1ccccc1 please.
[out] inactive

[in] Tell me the assay call for CCOC(=O)/C=C\c1c(Cl)n(-c2ccccc2)c(=O)n(-c2ccccc2)c1=O please.
[out] inactive

[in] Tell me the assay call for CC(O)c1ccc[n+](Cc2ccccc2)c1 (centres undefined) please.
[out] inactive

[in] Tell me the assay call for CN(C)CCCNc1c(C#N)[n+]([O-])c2cc(Cl)ccc2[n+]1[O-] please.
[out] inactive

[in] Tell me the assay call for COc1cc(CNc2nc3cc(C(F)(F)F)ccc3nc2C)cc(OC)c1OC please.
[out] inactive

[in] Tell me the assay call for NNC(=O)N/N=C1\C(=O)N(c2ccc(Cl)c(Cl)c2)C(=O)C(=O)C1c1nc2ccccc2s1 (centres undefined) please.
[out] inactive

[in] Tell me the assay call for COC(=O)C1=C(C(=O)OC)C(C(=O)OC)C(C(=O)OC)C(C(=O)OC)(C(=O)OC)C(C(=O)OC)=C1C(=O)OC (centres undefined) please.
[out] inactive

[in] Tell me the assay call for C/C=C/C#CC#C/C=C/C=C/C(O)CCO (centres undefined) please.
[out] inactive
